Where do these numbers come from? They come from patent US8785638B2.

Test system: HIV-1 (IIIB), HIV-1 (NL4.3)
Test: microbe, parasite or virus in culture
Assay type: cell-based
Settings: Human immunodeficiency virus 1, IIIB, MT4; MT-4 cells, 50% protection against HIV-induced cytopathogenic effect, MTT
Procedure: A rapid and automated assay procedure was used for the in vitro evaluation of anti-HIV agents. […] The viabitlity of both HIV- and mock-infected cells was assessed spectrophotometrically via in situ reduction of 3-(4,5-dimethylthiazol-2-yl)-2,5-diphenyltetrazolium bromide (MTT). […] The percent protection achieved by the compound in HIV-infected cells was calculated by the following formula: […]
EC50 for assorted compounds

Compound | Value units | Value relation sign | EC50
CCCC(C(=O)O)c1c(C)nc2sc3c(c2c1-c1cccs1)CCC3 (stereo not drawn) [Cpd 130] | µM | = | 29.6
CCCC(C(=O)O)c1c(-c2ccccc2)nc2sc3c(c2c1-c1ccc(C)cc1)CCC3 (stereo not drawn) [Cpd 126] | µM | > | 30.1
Cc1ccc(-c2c(C(CC(C)C)C(=O)O)c(C)nc3sc4c(c23)CCCC4)cc1 (stereo not drawn) [Cpd 136] | µM | = | 1.02
Cc1nc2sc3c(c2c(-c2ccc4ncsc4c2)c1C(OC(C)(C)C)C(=O)O)CCCC3 (stereo not drawn) [Cpd 186] | µM | = | 0.038
CCCC(C(=O)O)c1c(C)nc2sc3c(c2c1-c1ccc(C)cc1)CCC3C (stereo not drawn) [Cpd 128] | µM | = | 4.07
CCCC(c1c(C)nc2sc3c(c2c1-c1ccc(C)cc1)CCCC3)C1SC(=O)NC1=O (stereo not drawn) [Cpd 182] | µM | > | 27.3
CCCC(C(=O)O)c1c(C)nc2sc3c(c2c1-c1ccc(CC)cc1)CCC3 (stereo not drawn) [Cpd 117] | µM | = | 0.53
CCCC(C(=O)O)c1c(C)nc2sc3c(c2c1-c1ccc(C)cc1)CC(C)C3 (stereo not drawn) [Cpd 127] | µM | = | 0.79
CCCC(C(=O)O)c1c(C)nc2sc3c(c2c1-c1cccc(C(F)(F)F)c1)CCCC3 (stereo not drawn) [Cpd 140] | µM | = | 28.2
CCCC(C(=O)O)c1c(C)nc2sc3c(c2c1-c1ccc(OC)c(OC)c1)CCCC3 (stereo not drawn) [Cpd 145] | µM | = | 123
CCCC(C(=O)O)c1c(C)nc2sc3c(c2c1-c1ccc(CC)cc1)CCCC3 (stereo not drawn) [Cpd 149] | µM | > | 67
Cc1ccc(-c2c(C(OC(C)(C)C)C(=O)O)c(C)nc3sc4c(c23)CCCC4)cn1 (stereo not drawn) [Cpd 184] | µM | = | 0.157
Cc1nc2sc3c(c2c(-c2cccnc2)c1C(OC(C)(C)C)C(=O)O)CCCC3 (stereo not drawn) [Cpd 173] | µM | = | 4.51
CCCC(C(=O)O)c1c(C)nc2sc(C)c(CC)c2c1-c1ccc(C)cc1 (stereo not drawn) [Cpd 109] | µM | = | 2.22
COCC(C(=O)O)c1c(C)nc2sc3c(c2c1-c1ccc(C)cc1)CCC3 (stereo not drawn) [Cpd 125] | µM | = | 66.5
CCCC(C(=O)O)c1c(CC)nc2sc3c(c2c1-c1ccc(C)cc1)CCCC3 (stereo not drawn) [Cpd 181] | µM | = | 2.89
CCCC(C(=O)O)c1c(C)nc2sc3c(c2c1-c1ccc(C)cc1)CCOC3 (stereo not drawn) [Cpd 133] | µM | = | 18
Cc1ccc(-c2c(C(Cc3ccccc3)C(=O)O)c(C)nc3sc4c(c23)CCC4)cc1 (stereo not drawn) [Cpd 134] | µM | > | 114
CCCC(C(N)=O)c1c(C)nc2sc3c(c2c1-c1ccc(C)cc1)CCCC3 (stereo not drawn) [Cpd 167] | µM | > | 26.1
CCCC(C(=O)O)c1c(C)nc2sc3c(c2c1-c1ccccc1F)CCCC3 (stereo not drawn) [Cpd 153] | µM | = | 17
CCCC(C(=O)O)c1c(C)nc2sc3c(c2c1-c1ccc2c(c1)OCO2)CCCC3 (stereo not drawn) [Cpd 146] | µM | = | 2.98
CCCC(C(=O)O)c1c(C)nc2sc3c(c2c1-c1ccc(C)cc1)CCC3 (stereo not drawn) [Cpd 100] | µM | = | 1.69
CCC(C)C(C(=O)O)c1c(C)nc2sc3c(c2c1-c1ccc(C)cc1)CCCC3 (stereo not drawn) [Cpd 157] | µM | > | 35
Cc1ccc(-c2c(C(C(=O)O)C(C)C)c(C)nc3sc4c(c23)CCCC4)cc1 (stereo not drawn) [Cpd 156] | µM | > | 98
Cc1ccc(-c2c(C(CCC(F)(F)F)C(=O)O)c(C)nc3sc4c(c23)CCCC4)cc1 (stereo not drawn) [Cpd 158] | µM | = | 5.48
CCCC(C(=O)O)c1c(C)nc2sc(C)cc2c1-c1ccc(C)cc1 (stereo not drawn) [Cpd 110] | µM | = | 0.76
CCCC(C(=O)O)c1c(C)nc2sc(C)c(C)c2c1-c1ccc(C)cc1 (stereo not drawn) [Cpd 108] | µM | = | 2.19
CCCC(C(=O)O)c1c(C)nc2sc3c(c2c1-c1ccc(C(F)(F)F)cc1)CCC3 (stereo not drawn) [Cpd 116] | µM | = | 1.21
CCCC(C(=O)O)c1c(C)nc2sc(CC)c(C)c2c1-c1ccc(C)cc1 (stereo not drawn) [Cpd 111] | µM | = | 1.28
Cc1ccc(-c2c(C(OC(C)(C)C)C(=O)O)c(C)nc3sc4c(c23)CCCC4)cc1 (stereo not drawn) [Cpd 170] | µM | = | 0.0263
Cc1ccc(-c2c(C(CC3CC3)C(=O)O)c(C)nc3sc4c(c23)CCCC4)cc1 (stereo not drawn) [Cpd 165] | µM | = | 0.867
CCCC(C(=O)O)c1c(C)nc2sc3c(c2c1-c1ccccc1)CCC3 (stereo not drawn) [Cpd 107] | µM | = | 13.2
CCCC(C(=O)O)c1c(C)nc2sc3c(c2c1-c1ccc(Cl)cc1)CCC3 (stereo not drawn) [Cpd 112] | µM | = | 0.803
CCCC(C(=O)O)c1c(C)nc2sc3c(c2c1-c1ccc(C)cc1)CCCC3 (stereo not drawn) [Cpd 113] | µM | = | 0.44
CCCC(C(=O)O)c1c(C)nc2sc3c(c2c1-c1ccc(C)cc1)CCCCC3 (stereo not drawn) [Cpd 135] | µM | = | 42.4
CCC[C@@H](C(=O)O)c1c(C)nc2sc3c(c2c1-c1ccc(C)cc1)CCCC3 [Cpd 115] | µM | = | 5.03

----------
IC50 for assorted compounds
biological target: LEDGF/p75-HIV-1 integrase interaction (Human immunodeficiency virus type 1 group M subtype B (isolate HXB2) (HIV-1)); experiment: AlphaScreen assay of LEDGF-integrase interaction inhibition; format: binding; conditions: His6-tagged integrase 300 nM, flag-LEDGF/p75 100 nM; read-out: Alphascreen IC50

Compound | IC50 (µM)
CCC[C@@H](C(=O)O)c1c(C)nc2sc3c(c2c1-c1ccc(C)cc1)CCCC3 | 17.6
CCCC(C(=O)NC#N)c1c(C)nc2sc3c(c2c1-c1ccc(C)cc1)CCCC3 (centres unmarked) | 3
CCCC(C(=O)O)c1c(C)nc2sc3c(c2c1-c1ccccc1Cl)CCCC3 (centres unmarked) | 51.9
Cc1ccc(-c2c(CC(=O)O)c(C)nc3sc4c(c23)CCC4)cc1 | 55.3
CCCC(C(=O)O)c1c(C)nc2sc3c(c2c1-c1ccc(C)cc1OC)CCCC3 (centres unmarked) | 17.7

----------
IC50 for assorted compounds
target: LEDGF/p75-HIV-1 integrase interaction (Human immunodeficiency virus type 1 group M subtype B (isolate HXB2) (HIV-1)); experiment: AlphaScreen assay of LEDGF-integrase interaction inhibition; format: binding

Compound | IC50 / µM
Cc1nc2sc3c(c2c(-c2ccc4c5c(ccnc25)CCO4)c1C(OC(C)(C)C)C(=O)O)CCCC3 (stereo not drawn) | 0.37
CCCC(C(=O)O)c1c(C)nc2sc3c(c2c1-c1cccc(OC)c1)CCCC3 (stereo not drawn) | 6.64
CCCC(C(=O)O)c1c(C)nc2sc3c(c2c1-c1ccc(C)cc1O)CCCC3.N (stereo not drawn) [Cpd 161, ammonium salt] | 0.0554
CCCC(C(=O)O)c1c(C)nc2sc3c(c2c1-c1ccc(C)cc1)CCCCC3 (stereo not drawn) | 55.8
CCCC(C(=O)O)c1c(C)nc2sc3c(c2c1-c1ccc(OC)cc1)CCC3 (stereo not drawn) | 4.54

----------
biological target: LEDGF/p75-HIV-1 integrase interaction (Human immunodeficiency virus type 1 group M subtype B (isolate HXB2) (HIV-1), UniProt P04585); assay: AlphaScreen assay of LEDGF-integrase interaction inhibition; assay type: binding; conditions: His6-tagged integrase 300 nM, flag-LEDGF/p75 100 nM; read-out: Alphascreen IC50
log10(IC50) for assorted molecules
Readout name: log10(IC50) (log10 of the value in µM)

Molecule | log10(IC50)
Cc1ccc(-c2c(C(C(=O)O)C(C)C)c(C)nc3sc4c(c23)CCCC4)cc1 (stereo not drawn) [Cpd 156] | 1.78
Cc1ccc(-c2c(C(CCCC(F)(F)F)C(=O)O)c(C)nc3sc4c(c23)CCCC4)cc1 (stereo not drawn) [Cpd 147] | 1.37
CCCC(C(=O)O)c1c(C)nc2sc(C)cc2c1-c1ccc(C)cc1 (stereo not drawn) [Cpd 110] | 0.63
CCCC(C(=O)O)c1c(C)nc2sc3c(c2c1-c1ccc(CC)cc1)CCC3 (stereo not drawn) [Cpd 117] | -0.11
CCCC(C(=O)O)c1c(C)nc2sc3c(c2c1-c1cccnc1)CCCC3 (stereo not drawn) [Cpd 150] | 0.14
CCc1sc2nc(C)c(CC(=O)O)c(-c3ccc(C)cc3)c2c1C [Cpd 105] | 1.81
CCCC(C(=O)O)c1c(C)nc2sc3c(c2c1-c1ccc(C)cc1)CCC3C (stereo not drawn) [Cpd 128] | 1.05
COCC(C(=O)O)c1c(C)nc2sc3c(c2c1-c1ccc(C)cc1)CCC3 (stereo not drawn) [Cpd 125] | 1.89
CCCC(C(=O)O)c1c(C)nc2sc3c(c2c1-c1ccc(C)cc1)CCCC3 (stereo not drawn) [Cpd 113] | -0.12
